Please go through the items and note down their log10 IC90, Myostatin SMAD RGA.
target: ActRIIA and ActRIIB (on TGFB/SMAD SBE Reporter HEK293 cells) (human); assay: cell-based or functional assay
Sequence (chain, as listed by the source, chain 1 of 2): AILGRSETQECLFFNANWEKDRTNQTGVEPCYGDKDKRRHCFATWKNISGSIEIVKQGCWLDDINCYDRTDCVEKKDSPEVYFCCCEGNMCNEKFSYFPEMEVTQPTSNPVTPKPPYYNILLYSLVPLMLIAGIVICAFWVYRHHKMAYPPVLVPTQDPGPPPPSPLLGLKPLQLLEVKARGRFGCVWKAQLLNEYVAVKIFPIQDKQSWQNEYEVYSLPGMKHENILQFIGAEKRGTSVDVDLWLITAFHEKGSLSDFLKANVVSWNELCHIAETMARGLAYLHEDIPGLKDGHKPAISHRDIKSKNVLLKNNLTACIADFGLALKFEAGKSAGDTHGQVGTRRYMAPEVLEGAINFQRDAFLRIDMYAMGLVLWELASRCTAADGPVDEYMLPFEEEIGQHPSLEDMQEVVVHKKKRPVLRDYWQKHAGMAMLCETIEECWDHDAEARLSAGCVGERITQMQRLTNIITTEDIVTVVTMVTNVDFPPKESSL
Sequence (chain, as listed by the source, chain 2 of 2): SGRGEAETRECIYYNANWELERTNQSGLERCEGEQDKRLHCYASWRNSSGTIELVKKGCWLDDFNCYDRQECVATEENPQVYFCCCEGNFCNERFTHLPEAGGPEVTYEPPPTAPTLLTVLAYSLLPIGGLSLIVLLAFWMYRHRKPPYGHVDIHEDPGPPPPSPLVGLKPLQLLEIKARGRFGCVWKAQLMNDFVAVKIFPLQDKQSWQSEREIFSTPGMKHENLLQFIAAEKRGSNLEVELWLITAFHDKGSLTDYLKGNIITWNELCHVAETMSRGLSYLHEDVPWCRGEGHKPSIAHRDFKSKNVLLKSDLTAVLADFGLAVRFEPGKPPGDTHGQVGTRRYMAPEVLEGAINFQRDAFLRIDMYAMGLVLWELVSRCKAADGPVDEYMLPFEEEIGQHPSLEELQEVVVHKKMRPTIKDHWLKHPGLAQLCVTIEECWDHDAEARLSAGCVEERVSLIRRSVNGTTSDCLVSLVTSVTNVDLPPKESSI
Units before log transform: nM; reported quantity: IC90, Myostatin SMAD RGA; transform: log10.

stdin: Give reported log10 IC90, Myostatin SMAD RGA value for Antibody Pfitzauf (antibody, V domains shown, full-length IgG) VH: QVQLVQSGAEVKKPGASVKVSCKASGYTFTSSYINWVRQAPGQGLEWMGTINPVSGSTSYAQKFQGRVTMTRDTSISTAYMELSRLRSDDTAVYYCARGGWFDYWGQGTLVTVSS VL: QSALTQPASVSGSPGQSITISCTGTSSDVGSGNYVNWYQQHPGKAPKLMIYGVSKRESGVSNRFSGSKSGNTASLTISGLQAEDEADYYCGTFAGGKYYGVFGGGTKLTVL
stdout: 0.13

stdin: Please list log10 IC90, Myostatin SMAD RGA recorded for the binder Antibody Bäradreck (antibody, V domains shown, full-length IgG) VH: QVQLVQSGAEVKKPGSSVKVSCKASGYTFTSSYINWVRQAPGQGLEWMGTINPVSGSTSYAQKFQGRVTITADTSTSTAYMELSSLRSEDTAVYYCARGGWFDYWGQGTLVTVSS VL: QSALTQPRSVSGSPGQSVTISCTGTSSDVGSYNYVNWYQQHPGKAPKLMIYGVSKRPSGVPDRFSGSKSGNTASLTISGLQAEDEADYYCGTFAGGSYYGVFGGGTKLTVL
stdout: 0.61

stdin: Tell me measured log10 IC90, Myostatin SMAD RGA for Antibody Duuranad (antibody, V domains shown, full-length IgG) VH: QVQLVQSGAEVKKPGASVKVSCKASGYTFTSSYINWVRQAPGQGLEWMGTINAVSGSTSYAQKFQGRVTMTRDTSISTAYMELSRLRSDDTAVYYCARGGWFDYWGQGTLVTVSS VL: QSALTQPASVSGSPGQSITISCTGTSSDVGSFNYVNWYQQHPGKAPKLMIRGVSKRESGVSNRFSGSKSGNTASLTISGLQAEDEADYYCGTFAGGAYYGVFGGGTKLTVL please.
stdout: 0.65

stdin: Please give the documented log10 IC90, Myostatin SMAD RGA of Antibody Ofaschlupfer (antibody, V domains shown, full-length IgG) VH: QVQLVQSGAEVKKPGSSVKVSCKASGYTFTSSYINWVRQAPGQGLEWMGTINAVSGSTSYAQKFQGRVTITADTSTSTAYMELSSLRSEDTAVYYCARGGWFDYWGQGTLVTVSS VL: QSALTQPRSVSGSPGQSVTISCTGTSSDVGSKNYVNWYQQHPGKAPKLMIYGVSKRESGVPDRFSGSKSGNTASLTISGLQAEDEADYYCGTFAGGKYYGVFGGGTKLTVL
stdout: 1.16

stdin: Quick one: give measured log10 IC90, Myostatin SMAD RGA for Antibody Bäratatza (antibody, V domains shown, full-length IgG) VH: QVQLVQSGAEVKKPGASVKVSCKASGYTFTSSYINWVRQAPGQGLEWMGTINAVSGSTSYAQKFQGRVTMTRDTSISTAYMELSRLRSDDTAVYYCARSGWFDYWGQGTLVTVSS VL: QSALTQPASVSGSPGQSITISCTGTSSDVGSYNYVNWYQQHPGKAPKLMIYGVSKQQSGVSNRFSGSKSGNTASLTISGLQAEDEADYYCGTFAGGSYYGVFGGGTKLTVL
stdout: -0.31
